Data origin: patent US20220112291A1

# assaySystem: human CD1a expressed on cells (human, UniProt P06126 17-327)
# Sequence (P06126 17-327): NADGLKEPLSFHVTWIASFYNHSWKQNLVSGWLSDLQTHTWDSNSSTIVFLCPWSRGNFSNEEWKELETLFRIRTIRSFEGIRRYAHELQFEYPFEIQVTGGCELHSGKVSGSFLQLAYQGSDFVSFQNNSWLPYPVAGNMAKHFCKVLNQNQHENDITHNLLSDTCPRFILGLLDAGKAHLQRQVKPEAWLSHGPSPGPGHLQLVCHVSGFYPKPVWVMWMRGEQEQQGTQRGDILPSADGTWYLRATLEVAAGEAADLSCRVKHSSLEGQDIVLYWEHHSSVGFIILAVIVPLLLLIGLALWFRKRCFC
# measurementProtocol: cell-based or functional assay
recordedMetric: Inhibition of IL-2 production, IC50 (nM)
Answer format: numeric, nM implied, no suffix.

Check out these entries, answers already filled in.
Ab689 (antibody, human IgG1, kappa, V domains shown, Optimized variant of Ab138; human IgG1 effector null / kappa; HC with or without terminal lysine) VH: EVQLVESGGGLVQPGGSLRLSCAASGFTFTDHYMHWVRQAPGKGLEWVAHTRDKAGGYTTESNPAVKGRFTISRDNAKNSLYLQMNSLRAEDTAVYYCARETTRIPTGWFAYWGQGTLVTVSS VL: DIQMTQSPSSLSASVGDRVTITCLASEDIYFDLAWYQQKPGKAPKLLIYGGDRLQEGVPSRFSGSGSGTDYTLTISSLQPEDFATYYCQQSYSYPYTFGQGTKLEIKR    0.17
Ab656 (antibody, human IgG1, kappa, V domains shown, Optimized variant of Ab138; human IgG1 effector null / kappa; HC with or without terminal lysine) VH: EVQLVESGGGLVQPGGSLRLSCAASGFDFTDHYMHWVRQAPGKGLEWVAHTRDKAGGYTTESNPAVKGRFTISRDNAKNSLYLQMNSLRAEDTAVYYCARETTRIPTGWFAYWGQGTLVTVSS VL: DIQMTQSPSSLSASVGDRVTITCLASEDIYFDLAWYQQKPGKAPKLLIYGGDRLQEGVPSRFSGSGSGTDYTLTISSLQPEDFATYYCQQSYSYPYTFGQGTKLEIKR    0.22
Ab585 (antibody, human IgG1, kappa, V domains shown, Optimized variant of Ab138; human IgG1 effector null / kappa; HC with or without terminal lysine) VH: EVQLVESGGGLVQPGGSLRLSCAASGFTFTDHYMHWVRQAPGKGLEWVGHISGSAGGYTTESNPAVKGRFTISRDNAKNSLYLQMNSLRAEDTAVYYCARETTRIPTGWFAYWGQGTLVTVSS VL: DIQMTQSPSSLSASVGDRVTITCLASEDIYFDLAWYQQKPGKAPKLLIYGASTPKDGVPSRFSGSGSGTDYTLTISSLQPEDFATYYCQQSEKYPYTFGQGTKLEIKR    0.14
Ab609 (antibody, human IgG1, kappa, V domains shown, Optimized variant of Ab138; human IgG1 effector null / kappa; HC with or without terminal lysine) VH: EVQLVESGGGLVQPGGSLRLSCAASGFTFEDHYMHWVRQAPGKGLEWVAHTRDKAGGYTTESNPAVKGRFTISRDNAKNSLYLQMNSLRAEDTAVYYCARETTRIPTGWFAYWGQGTLVTVSS VL: DIQMTQSPSSLSASVGDRVTITCLASEDIYFDLAWYQQKPGKAPKLLIYGGDRLKEGVPSRFSGSGSGTDYTLTISSLQPEDFATYYCQQSESYPYTFGQGTKLEIKR    0.12

Here is another binder to look at.
Exercise: GET /values?readout=Inhibition of IL-2 production, IC50&item= Ab681 (antibody, human IgG1, kappa, V domains shown, Optimized variant of Ab138; human IgG1 effector null / kappa; HC with or without terminal lysine) VH: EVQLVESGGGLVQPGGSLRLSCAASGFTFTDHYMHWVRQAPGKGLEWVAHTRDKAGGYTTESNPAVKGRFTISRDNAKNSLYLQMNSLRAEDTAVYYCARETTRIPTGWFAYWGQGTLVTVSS VL: DIQMTQSPSSLSASVGDRVTITCLASEDIYFDLAWYQQKPGKAPKLLIYGGDRLQEGVPSRFSGSGSGTDYTLTISSLQPEDFATYYCQQSESYPYTFGQGTKLEIKR
Solution: 0.12
